# experimental_target: T1, human IL-36R extracellular domain expressed with a C-terminal myc-myc-hexahistidine tag (hIL-36R-MMH) (human, UniProt Q9HB29 20-337)
# T1 construct: also called Human IL-36R-MMH; REGN2105
# T1 sequence (Q9HB29 other isoform, or with tags, fused parts or gaps limits assumed): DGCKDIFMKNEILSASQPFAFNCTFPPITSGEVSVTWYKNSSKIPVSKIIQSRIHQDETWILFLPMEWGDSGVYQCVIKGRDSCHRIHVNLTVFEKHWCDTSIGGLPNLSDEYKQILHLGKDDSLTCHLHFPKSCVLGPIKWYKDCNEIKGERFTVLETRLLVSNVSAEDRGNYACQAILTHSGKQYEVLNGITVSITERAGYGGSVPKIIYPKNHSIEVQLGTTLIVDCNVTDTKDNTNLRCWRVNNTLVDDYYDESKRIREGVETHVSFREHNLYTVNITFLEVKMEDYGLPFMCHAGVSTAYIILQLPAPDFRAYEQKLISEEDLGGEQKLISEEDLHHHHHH
# experiment_summary: SPR Biacore T200, mAb captured on anti-hFc, 37C, PBS-T pH 6.0 running buffer
value_type: koff

[[record]]
binder = "H4H14731P (antibody, human IgG4 S228P, kappa, V domains shown, Fully human anti-IL-36R antibody) VH: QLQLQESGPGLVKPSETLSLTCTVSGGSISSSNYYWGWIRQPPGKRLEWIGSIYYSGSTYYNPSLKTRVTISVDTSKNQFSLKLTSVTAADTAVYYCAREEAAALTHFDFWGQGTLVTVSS VL: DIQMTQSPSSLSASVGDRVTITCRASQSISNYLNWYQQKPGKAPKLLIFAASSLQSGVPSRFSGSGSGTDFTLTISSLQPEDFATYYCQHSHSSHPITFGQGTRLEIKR"
value_type = "koff"
result = "0.00201 s⁻¹"

[[record]]
binder = "H4H14758P (antibody, human IgG4 S228P, kappa, V domains shown, Fully human anti-IL-36R antibody) VH: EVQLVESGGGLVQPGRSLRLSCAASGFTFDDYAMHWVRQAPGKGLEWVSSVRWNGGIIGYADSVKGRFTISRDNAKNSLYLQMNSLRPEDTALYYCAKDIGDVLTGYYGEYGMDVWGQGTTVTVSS VL: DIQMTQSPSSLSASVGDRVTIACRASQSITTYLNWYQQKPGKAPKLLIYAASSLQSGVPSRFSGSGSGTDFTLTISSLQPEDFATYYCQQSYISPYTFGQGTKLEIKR"
value_type = "koff"
result = "0.00339 s⁻¹"

[[record]]
binder = "H4H14709P (antibody, human IgG4 S228P, kappa, V domains shown, Fully human anti-IL-36R antibody) VH: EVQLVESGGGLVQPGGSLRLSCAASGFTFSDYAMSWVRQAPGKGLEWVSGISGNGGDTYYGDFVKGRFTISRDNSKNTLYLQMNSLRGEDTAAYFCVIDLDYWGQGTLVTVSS VL: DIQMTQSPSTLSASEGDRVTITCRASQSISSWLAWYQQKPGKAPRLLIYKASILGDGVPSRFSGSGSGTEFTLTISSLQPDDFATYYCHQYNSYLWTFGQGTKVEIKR"
value_type = "koff"
result = "0.00172 s⁻¹"

